tested on: pigweed; assay: Test A pre-/postemergence herbicide test; assay type: in vivo, Amaranthus retroflexus; settings: Postemergence, 125 g ai/ha; 0 to 100 scale, 0 no effect, 100 complete control
OBSERVED_PROPERTY: Plant response rating, Pigweed

- COMPOUND: "O=C1NCC(c2ccc(F)c(C(F)(F)F)c2)C1C(=O)Nc1cccc(F)c1F (racemic)"
  OBSERVED_PROPERTY: "Plant response rating, Pigweed"
  ENDPOINT_VALUE: 40
- COMPOUND: "O=C1NCC(c2ccc(F)c(F)c2)C1C(=O)Nc1cccc(C(F)(F)F)c1 (racemic)"
  OBSERVED_PROPERTY: "Plant response rating, Pigweed"
  ENDPOINT_VALUE: 0
- COMPOUND: "CC1(C)NC(=O)C(C(=O)Nc2ccccc2F)C1c1ccc(F)c(F)c1 (stereo not shown)"
  OBSERVED_PROPERTY: "Plant response rating, Pigweed"
  ENDPOINT_VALUE: 0
- COMPOUND: "O=C1NCC(c2ccc3ccccc3c2)C1C(=O)Nc1ccccc1C(F)(F)F (racemic)"
  OBSERVED_PROPERTY: "Plant response rating, Pigweed"
  ENDPOINT_VALUE: 0

---

tested on: pigweed; assay: Test C pre-/postemergence herbicide test; assay type: in vivo, Amaranthus retroflexus; conditions: Preemergence, 62 g ai/ha; scale 0 to 100

- COMPOUND: "O=C1NCC(c2ccc(F)cc2)C1C(=O)Nc1ccc(F)c(F)c1F (racemic)"
  Plant response rating, Pigweed: 45
- COMPOUND: "O=C1NCC(c2ccc(C(F)(F)F)cc2)C1C(=O)Nc1ccccc1F (stereo not shown)"
  Plant response rating, Pigweed: 40
- COMPOUND: "O=C1NCC(c2ccc(Cl)c(F)c2)C1C(=O)Nc1cccc(F)c1F (stereo not shown)"
  Plant response rating, Pigweed: 20
- COMPOUND: "O=C1NCC(c2ccc(F)c(Cl)c2)C1C(=O)Nc1ccccc1F (stereo not shown)"
  Plant response rating, Pigweed: 10

---

The entries below are paired with their reported Plant response rating, Pigweed.
tested on: pigweed; test: Test D pre-/postemergence herbicide test; type: in vivo, Amaranthus retroflexus; settings: Preemergence, 62 g ai/ha; scale 0 to 100 (0 no effect, 100 complete control)
OBSERVED_PROPERTY: Plant response rating, Pigweed

- MOLECULE: "O=C1NCC(c2ccc(C(F)(F)F)cc2)C1C(=O)Nc1ccccc1F (centres unmarked)"
  OBSERVED_PROPERTY: "Plant response rating, Pigweed"
  ENDPOINT_VALUE: 50
- MOLECULE: "O=C1NCC(c2ccc(F)c(C(F)(F)F)c2)C1C(=O)Nc1cccc(F)c1F (racemic)"
  OBSERVED_PROPERTY: "Plant response rating, Pigweed"
  ENDPOINT_VALUE: 70
- MOLECULE: "O=C1NCC(c2cc(F)c(F)cc2F)C1C(=O)Nc1cccc(F)c1F (centres unmarked)"
  OBSERVED_PROPERTY: "Plant response rating, Pigweed"
  ENDPOINT_VALUE: 25
- MOLECULE: "O=C1NCC(c2ccc(F)c(F)c2)C1C(=O)Nc1ccccc1C(F)(F)F (racemic)"
  OBSERVED_PROPERTY: "Plant response rating, Pigweed"
  ENDPOINT_VALUE: 0
- MOLECULE: "O=C1NCC(c2ccc(C(F)(F)F)cc2)C1C(=O)Nc1cccc(F)c1F (centres unmarked)"
  OBSERVED_PROPERTY: "Plant response rating, Pigweed"
  ENDPOINT_VALUE: 10
